test system: S. pneumoniae with reduced susceptibility to CIP; assay: MIC by NCCLS microbroth dilution, 80 clinical isolates with CIP MIC ≧2 μg/ml; format: cell-based; settings: Streptococcus pneumoniae, 80 isolates with CIP MICs ≧2 μg/ml; Table 1 MIC50
Measurement Type: MIC50 (µg/mL)

Check out these entries, answers already filled in.
C[C@H]1COc2c(N3CCN(C)CC3)c(F)cc3c(=O)c(C(=O)O)cn1c23 [LEV, levofloxacin] :: 16
N[C@@H]1[C@H]2CN(c3nc4c(cc3F)c(=O)c(C(=O)O)cn4-c3ccc(F)cc3F)C[C@@H]12 [TFX, trovafloxacin] :: 4
Cc1c(F)c(N2CCNC(C)C2)cc2c1c(=O)c(C(=O)O)cn2C1CC1 (stereo not shown) [GRE, grepafloxacin] :: 8
COc1c(N2CCNC(C)C2)c(F)cc2c(=O)c(C(=O)O)cn(C3CC3)c12 (stereo not shown) [GAT, gatifloxacin] :: 4
COc1c(N2C[C@@H]3CCCN[C@@H]3C2)c(F)cc2c(=O)c(C(=O)O)cn(C3CC3)c12 [MOX, moxifloxacin] :: 2

[1] CO/N=C1\CN(c2nc3c(cc2F)c(=O)c(C(=O)O)cn3C2CC2)CC1CN (racemic) [GFX]
[2] C[C@@H]1CN(c2c(F)c(N)c3c(=O)c(C(=O)O)cn(C4CC4)c3c2F)C[C@H](C)N1 [SPA, sparfloxacin]
Data request: Which item exceeds the other in MIC50, 1 or 2 ? Respond using the label that marks the chosen record.
Data returned: 2

The reported numbers originate from patent US20030073695A1.
